Catalogue of inhibition readings, one per entry.
experiment: TLR3 IRF3 reporter activation blockers – cell-based, poly I:C stimulus, luciferase, 10K MLSCN set, primary screen (AID 602277); details: HEK293-TLR3 RL24 IRF3 luciferase reporter, at 10 µM, stronger effect = higher value
State just the number; it will be interpreted in %.

> print(dat)
                                   compound  quantity.measured  observed.result
1  O=C1CC(c2ccco2)CC(O)=C1C=NCCN1CCNCC1 (stereo unspecified)         inhibition             31.6

Given COC(=O)c1sccc1NC(=O)c1ccncc1 , state its recorded inhibition.
-9.7

What about COc1ccc(CCNC(=O)C2CCN(Cc3nc(-c4cccc(Cl)c4)oc3C)CC2)cc1OC ?
-17.9

What about COc1cc(Cn2c(C(=O)O)cc3sccc32)cc(OC)c1OC ?
20.9

What about O=C1NC(c2ccccc2)(C(F)(F)F)SC2=NCCCN12 (stereo unspecified) ?
-13.6

What about O=C(CN1C(=O)c2cccc3cccc1c23)Nc1ccccc1C(=O)NCc1ccco1 ?
13.4

What about CN(C)CCC(c1ccc(Br)cc1)c1ccccn1 (stereo unspecified) ?
31.9

What about COc1ccc(-c2ccc(-c3nnc(-c4ccncc4)o3)cc2)cc1 ?
-28.2

What about O=C(NCCN1CCN(c2ccccc2)CC1)c1ccc(NC(=O)C2CCCO2)cc1 (stereo unspecified) ?
6.35

What about CCc1c(C)nc(N)n2c(SCC(=O)N3CCCc4ccccc43)nnc12 ?
31.4

What about CCOc1cc(S(=O)(=O)NCc2ccccn2)c(C)cc1C ?
20.9

###

Catalogue of inhibition readings, one per entry.
assay: TLR3 IRF3 reporter activation blockers – cell-based, poly I:C stimulus, luciferase, 10K MLSCN set, primary screen (AID 602277); conditions: HEK293-TLR3 RL24 IRF3 luciferase reporter, at 10 µM, stronger effect = higher value
The source made the active and inactive calls.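 The calls were made as follows: active = inhibition of the reporter signal at or above 50%; inactive = inhibition below 50%.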

Before answering, review these 10 worked examples.
> print(dat)
                                    molecule  quantity.measured    observed.result
 1              CCSc1nnc(NC(=O)c2ccc(C)o2)s1         inhibition    -89% (inactive)
 2                 COc1cccc(OCCOCCN(C)CCO)c1         inhibition   14.6% (inactive)
 3        O=C1CN(c2ccccc2F)C(=O)CN1c1ccccc1F         inhibition   14.3% (inactive)
 4  CC(C)c1ccc(S(=O)(=O)N2CCN(C(=O)c3cccc(F)c3)CC2)cc1         inhibition     17% (inactive)
 5   O=C(CSc1ncnc2ccccc12)N1CCN(c2ccccc2)CC1         inhibition   15.7% (inactive)
 6                O=c1[nH]c2cccnc2n1Cc1ccco1         inhibition   6.25% (inactive)
 7  CCOC(=O)N1CCN(CC(=O)Nc2c(C(=O)OC)[nH]c3cccc(Cl)c23)CC1         inhibition  -2.65% (inactive)
 8  COc1cc(C(=O)N2CCCC(c3nc(-c4cccs4)no3)C2)cc(OC)c1OC (centres undefined)         inhibition   12.8% (inactive)
 9     COc1cccc2cc(C(=O)n3ccc(C)n3)c(=O)oc12         inhibition   12.3% (inactive)
10  CS(=O)(=O)N(CC(=O)NCc1ccccn1)c1ccc2c(c1)OCCO2         inhibition   15.8% (inactive)

Given C=CCn1c(=O)[nH]c2cc(C(=O)N3CCN(c4cc(C)ccc4C)CC3)ccc2c1=O , state its recorded inhibition.
-2.95% (inactive)

What about O=C(c1ccco1)N1CCN(C(=O)C2CCN(S(=O)(=O)c3cccc4nsnc34)CC2)CC1 ?
18.1% (inactive)

What about O=C1CN=C(Nc2cccc(C(F)(F)F)c2)N1C1CCCC1 ?
-11.6% (inactive)

What about CS(=O)(=O)Nc1ccc(C(=O)NCc2ccc3c(c2)OCO3)cc1 ?
4.21% (inactive)

What about O=C1C=C(NCc2ccco2)C2(CCCCC2)O1 ?
20.2% (inactive)

What about COc1ccc(C2=Nn3c(nnc3-c3cccnc3)SC2)cc1 ?
7.82% (inactive)

What about Cc1cc(-c2ccccc2)c2nncn2n1 ?
15.3% (inactive)

What about COc1ccccc1N1CCN(CCCNC(=O)Nc2ccccc2)CC1 ?
23.9% (inactive)

###

Catalogue of nuclei count readings, one per entry.
assay: reduction of polyQ htt aggregates in cells – imaging, exon1htt(103Q)mCFP cells, high-content imaging, primary screen (AID 483); conditions: exon1htt(103Q)mCFP cell line, aggregate imaging, at 2 µM; measured here: cell count, toxicity;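 note: compound exposure lasted 3 days before fixation; percent of the per-plate median nuclei count of sample wells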
State just the number; it will be interpreted in %.

> print(dat)
                                   compound  quantity.measured  observed.result
1    CS(=O)(=O)Nc1ccc(S(=O)(=O)Nc2nccs2)cc1       nuclei count              112
2     CCN1CCN(c2c(Cl)cccc2NC(=O)c2ccco2)CC1       nuclei count             77.9
3  COc1ccccc1C(=O)Nc1ccc(S(=O)(=O)N2CCOCC2)cc1       nuclei count             61.9

Given COC(=O)c1oc2ccc(OC)cc2c1N , state its recorded nuclei count.
85.1

What about O=S(=O)(NCC(O)COCc1ccco1)c1cccs1 (configuration not stated) ?
108

What about Cc1ccccc1CSCC(=O)c1c(N)n(C)c(=O)n(C)c1=O ?
96.5

What about FC(F)(F)C(F)(F)C(F)(F)c1nnc2ccc(N3CCOCC3)nn12 ?
102

What about COCC(=O)Nc1sc2c(c1C(=O)OC)C(C(=O)OC)CC2 (configuration not stated) ?
93.9

###

Catalogue of NADPH fluorescence slope readings, one per entry.
target: Voltage-gated potassium channel subunit beta-2 (Rattus norvegicus); experiment: enhancers of rat Kvbeta2 NADPH turnover – biochemical, NADPH fluorescence, primary screen (AID 623); conditions: Recombinant KvBeta, NADPH fluorescence decrease slope, 10 min; at 10 µM; stronger effect = lower value;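 note: fluorescence intensity change per second fitted from 20 to 320 s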
Keep it simple and answer with nothing but the number.

Before answering, review these 8 worked examples.
> print(dat)
                                   molecule  observed.result
1    O=C(Cn1c(=O)[nH]c2ccsc2c1=O)NC1CCCCCC1         -3.5e-06
2               COc1cccc(OC)c1C(=O)N1CCOCC1         -3.1e-05
3  Cc1ccc(F)cc1NC(=O)Cc1nn(C)c(=O)c2ccccc12         -2.8e-05
4   CCOC(=O)c1[nH]c(C)c(C(=O)Nc2ccccc2F)c1C          2.7e-05
5  CCOc1cc(C2c3c(n[nH]c3C)C(=O)N2c2ccc(Br)cc2)ccc1O (stereo not given)         -8.6e-06
6  COc1cccc(C(=O)Nc2cccc(C(=O)N3CCOCC3)c2)c1         -3.3e-05
7               Nc1c(C2=NCCO2)nnn1Cc1ccccc1         -4.6e-05
8  CC1CCN(C(=O)CSc2nnc(-c3cccnc3)n2C2CCCCC2)CC1         -2.5e-05

Given COC(=O)c1ccc(N2C(=O)CC(N3CCN(C(=O)c4ccco4)CC3)C2=O)cc1 (stereo not given) , state its recorded NADPH fluorescence slope.
-5.8e-05

What about CC(C)(C)C(=O)N=C1SC2CS(=O)(=O)CC2N1c1ccc2c(c1)OCO2 (stereo not given) ?
-4.1e-05

###

Catalogue of inhibition readings, one per entry.
test: TLR3 IRF3 reporter activation blockers – cell-based, poly I:C stimulus, luciferase, 10K MLSCN set, primary screen (AID 602277); settings: HEK293-TLR3 RL24 IRF3 luciferase reporter, at 10 µM, stronger effect = higher value
Activity calls are given as the source filed them.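 The calls were made as follows: active = inhibition of the reporter signal at or above 50%; inactive = inhibition below 50%.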

Before answering, review these 5 worked examples.
> print(dat)
                                   compound  quantity.measured    observed.result
1  Cc1ccc(S(=O)(=O)N2CCCC2)cc1S(=O)(=O)N1CCCC1         inhibition   12.9% (inactive)
2  COc1ccc(C2C(C(=O)c3sc(C)nc3C)=C(O)C(=O)N2CCN2CCOCC2)cc1 (stereo unspecified)         inhibition   1.15% (inactive)
3     COC(=O)Cn1cnc2c(nnn2-c2ccc(C)cc2)c1=O         inhibition   1.35% (inactive)
4  O=C(Nc1ccccc1N1CCN(C(=O)c2ccc(Cl)cc2)CC1)c1cc2ccccc2o1         inhibition     17% (inactive)
5    Cc1nc(-c2cnn(-c3ccccc3)c2)c2cc(C)oc2n1         inhibition  -22.9% (inactive)

Given CCOc1ccccc1NC(=O)C1CCCN(C(=O)NCc2ccccc2)C1 (stereo unspecified) , state its recorded inhibition.
-20.5% (inactive)

What about COC(=O)C1(C(=O)OC)Sc2ccccc2C1=O ?
17.2% (inactive)

What about CCOC(=O)c1sc(C)c2c1NC(C)(c1cccs1)NC2=O (stereo unspecified) ?
10.9% (inactive)

What about COCCOC(=O)C1=C(C)Nc2ncnn2C1c1ccc(F)cc1 (stereo unspecified) ?
19.4% (inactive)

What about Cc1ccccc1-c1nc2ccccc2c(=O)n1C1CCS(=O)(=O)C1 (stereo unspecified) ?
31% (inactive)

What about O=C(c1cccs1)c1cn(CC(=O)N2CCc3ccccc3C2)c2ccccc12 ?
8.88% (inactive)

What about COCCN1C(=O)C(=O)/C(=C(/O)c2cccc(OC)c2)C1c1ccncc1 (stereo unspecified) ?
15.1% (inactive)

The reported numbers originate from PubChem BioAssay.
